- assay.overview: MTT cell viability assay
- Assay type: cell-based
- conditions.used: human, HepaRG hepatocytes, higher concentrations (reduction up to), normalized to control
observable: viability at 24 h

What does the data say about its viability at 24 h? Entry: COc1cc(C2Oc3cc([C@H]4Oc5cc(O)cc(O)c5C(=O)[C@@H]4O)ccc3OC2CO)ccc1O (stereo partly shown)
~80%

###

- assay.overview: MTT cell viability assay
- Assay type: cell-based
- conditions.used: rat, H9c2(2-1) cardiomyoblasts, 1 µM, normalized to control
observable: viability at 24 h, 1 µM (%)
A number alone suffices; assume %.

Find the recorded viability at 24 h, 1 µM belonging to COc1cc(C2Oc3cc([C@H]4Oc5cc(O)cc(O)c5C(=O)[C@@H]4O)ccc3OC2CO)ccc1O (stereo partly shown) and report it.
128

###

- assay.overview: MTT cell viability assay
- Type: cell-based
- conditions.used: rat, H9c2(2-1) cardiomyoblasts, all tested concentrations (1, 10, 25, 50, 100 µM), compared to control
observable: viability at 24 h, 100 µM

Quick one: viability at 24 h, 100 µM of COc1cc(C2Oc3cc([C@H]4Oc5cc(O)cc(O)c5C(=O)[C@@H]4O)ccc3OC2CO)ccc1O (stereo partly shown) ?
> 100%
